Listed next: entries and their corresponding odor intensity, 4 days.
# Assay info: Washtest and sensory evaluation of fabric washed with liquid detergent
# Condition set: Table 3; liquid detergent washtest, dry fabric 4 days; scale 0 to 5
Please give the numeric answer without any surrounding text.

Below: 5 molecules and their reported odor intensity, 4 days.
- Smiles text: "CC/C=C\\CCOc1ccc(CCC(C)=O)cc1"
  Reported endpoint: "odor intensity, 4 days"
  Value: 3.6
- Smiles text: "C=CCc1ccc(OCC/C=C\\CC)c(OC)c1"
  Reported endpoint: "odor intensity, 4 days"
  Value: 2.5
- Smiles text: "CCOc1cc(C=O)ccc1OCCC=C(C)C"
  Reported endpoint: "odor intensity, 4 days"
  Value: 3.4
- Smiles text: "CCOc1cc(C=O)ccc1OC1CC=CC1"
  Reported endpoint: "odor intensity, 4 days"
  Value: 3.7
- Smiles text: "CC/C=C\\CCOc1cc(C)c(C(=O)OC)c(O)c1C"
  Reported endpoint: "odor intensity, 4 days"
  Value: 3.3

Here is another molecule to look at.
**Query** Indicate the recorded odor intensity, 4 days value for this molecule: C/C=C/c1ccc(OCC/C=C\CC)c(OC)c1
**Result** 3.0

----------
# Assay info: Biodegradability, manometric respirometry test (OECD 301F)
# Condition set: pass level 60% oxygen consumption of theory
Listed next: entries and their corresponding Biodegradation in %.
Your answer is read as %, so omit the unit and give the number.

- Smiles text: "CC(=O)CCc1ccc(OCCC=C(C)C)cc1"
  Biodegradation in %, %: 91
- Smiles text: "CC=CCCOc1ccc(C=O)cc1OCC"
  Biodegradation in %, %: 66
- Smiles text: "CC/C=C\\CCOc1ccc(C=O)cc1OCC"
  Biodegradation in %, %: 61

**Query** Indicate the recorded Biodegradation in % value for this compound: CC/C=C\CCOc1ccc(C=O)cc1OC
**Result** 92

**Query** Indicate the recorded Biodegradation in % value for this compound: CC/C=C\CCOc1ccc(CCC(C)=O)cc1
**Result** 82

**Query** Indicate the recorded Biodegradation in % value for this compound: CCOc1cc(C=O)ccc1OCCC=C(C)C
**Result** 69

**Query** Indicate the recorded Biodegradation in % value for this compound: CCOc1cc(C=O)ccc1OC1CC=CC1
**Result** 74
